Experimental Target: ACE2/Spike (RBD) protein interaction (Homo sapiens, UniProt Q9BYF1)
Sequence (Q9BYF1 18-740): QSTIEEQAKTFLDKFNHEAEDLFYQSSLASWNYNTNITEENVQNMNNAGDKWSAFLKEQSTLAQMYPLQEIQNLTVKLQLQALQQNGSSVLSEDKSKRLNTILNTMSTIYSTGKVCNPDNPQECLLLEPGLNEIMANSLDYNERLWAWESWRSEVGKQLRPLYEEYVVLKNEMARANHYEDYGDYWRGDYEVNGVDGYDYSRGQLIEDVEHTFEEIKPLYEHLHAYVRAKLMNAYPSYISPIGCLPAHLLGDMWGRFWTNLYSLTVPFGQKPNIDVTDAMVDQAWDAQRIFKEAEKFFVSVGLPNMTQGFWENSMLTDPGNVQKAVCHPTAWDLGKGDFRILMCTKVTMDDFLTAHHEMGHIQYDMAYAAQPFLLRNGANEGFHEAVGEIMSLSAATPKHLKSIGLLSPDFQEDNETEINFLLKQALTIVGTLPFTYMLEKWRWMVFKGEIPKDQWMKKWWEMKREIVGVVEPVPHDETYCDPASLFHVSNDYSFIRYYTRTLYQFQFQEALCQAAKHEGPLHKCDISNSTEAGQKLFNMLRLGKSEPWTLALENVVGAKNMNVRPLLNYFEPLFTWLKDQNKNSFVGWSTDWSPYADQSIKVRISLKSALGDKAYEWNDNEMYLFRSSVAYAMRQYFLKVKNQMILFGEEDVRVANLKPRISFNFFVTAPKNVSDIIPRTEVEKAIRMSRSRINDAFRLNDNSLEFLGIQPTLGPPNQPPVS
Experimental Protocol: ACE2: SARS-CoV-2 spike inhibitor screening colorimetric assay
Assay type: binding
Test Context: value given in µM
Can you tell me IC50 for the items I'm about to list?
Express your answer in µM, writing the number without its unit.

According to the records, this molecule CCC/C=C\C/C=C\CCCCC(=O)OCC(COC(=O)CCCC/C=C\C/C=C\CCC)OC(=O)CCCC/C=C\CCCCC displays IC50 of 15.8

According to the records, this molecule COC(=O)[C@]1(Cc2ccc(O)c(CC=C(C)C)c2)OC(=O)C(O)=C1c1ccc(O)cc1 displays IC50 of 29.5

According to the records, this molecule CSC(O)(N1C(=O)CNC(=O)C1Cc1c[nH]c2ccccc12)N1C(=O)CC(=O)N2C(=O)c3cc(O)ccc3CC21 (stereo not shown) displays IC50 of 15.1

According to the records, this molecule COC(=O)[C@]1(Cc2ccc(O)c(CC3OC3(C)C)c2)OC(=O)C(O)=C1c1ccc(O)cc1 (stereo partly shown) displays IC50 of 21.6

----------
Can you tell me IC50 at 24 h for the items I'm about to list?
Experimental Protocol: MTT cell viability
Assay type: cell-based, Murine
Test Context: mouse, RAW 264.7 cells, read-out: IC50 mean ± SD (cytotoxic effect)
Express your answer in µg/mL, writing the number without its unit.

According to the records, this molecule COC(=O)[C@]1(Cc2ccc(O)c(CC=C(C)C)c2)OC(=O)C(O)=C1c1ccc(O)cc1 [Compound 2, butyrolactone I] displays IC50 at 24 h of 718

According to the records, this molecule COC(=O)[C@]1(Cc2ccc(O)c(CC3OC3(C)C)c2)OC(=O)C(O)=C1c1ccc(O)cc1 (some centres unmarked) [Compound 3, butyrolactone III] displays IC50 at 24 h of 246

----------
Experimental Protocol: MTT cell viability
Format: cell-based, Murine
Test Context: mouse, RAW 264.7 cells, value given in µM, read-out: IC50 (cytotoxic effect) (converted)
Method: Murine macrophage cells (RAW 264.7), supplied by American Type Culture Collection (ATCC), were grown on Dulbecco′s Modified Eagle Medium (DMEM), accompanied with 10%, […] and 100 μg/mL from bovine serum, penicillin, and streptomycin respectively. […] In vitro cytotoxicity assay kit MTT-based was purchased from Sigma- Aldrich, MTT cat No: M-5655, MTT solubilization solution: M-8910). […] DMSO (180 μL) was used to solubilize the crystals of formazan and the produced color was measured at λ570 nm. […]
Endpoint: IC50 at 24 h

According to the records, this molecule COC(=O)[C@]1(Cc2ccc(O)c(CC=C(C)C)c2)OC(=O)C(O)=C1c1ccc(O)cc1 displays IC50 at 24 h of 1690 µM

According to the records, this molecule COC(=O)[C@]1(Cc2ccc(O)c(CC3OC3(C)C)c2)OC(=O)C(O)=C1c1ccc(O)cc1 (some centres unmarked) displays IC50 at 24 h of 561 µM

----------
Can you tell me pIC50 for the items I'm about to list?
Experimental Target: ACE2/Spike (RBD) protein interaction (Homo sapiens, UniProt Q9BYF1)
Experimental Protocol: ACE2: SARS-CoV-2 spike inhibitor screening colorimetric assay
Assay type: binding
Test Context: tested 5–50 µg/mL, triplicates
Scale: pIC50 equals -log10([C]), with [C] in mol/L.

According to the records, this compound COC(=O)[C@]1(Cc2ccc(O)c(CC3OC3(C)C)c2)OC(=O)C(O)=C1c1ccc(O)cc1 (stereo partly shown) displays pIC50 of 4.67

According to the records, this compound CCC/C=C\C/C=C\CCCCC(=O)OCC(COC(=O)CCCC/C=C\C/C=C\CCC)OC(=O)CCCC/C=C\CCCCC displays pIC50 of 4.80

According to the records, this compound CSC(O)(N1C(=O)CNC(=O)C1Cc1c[nH]c2ccccc12)N1C(=O)CC(=O)N2C(=O)c3cc(O)ccc3CC21 (stereo not shown) displays pIC50 of 4.82

According to the records, this compound COC(=O)[C@]1(Cc2ccc(O)c(CC=C(C)C)c2)OC(=O)C(O)=C1c1ccc(O)cc1 displays pIC50 of 4.53
